biological target: T1, PD-L1, histidine (His)-tagged (UniProt Q9NZQ7 19-238); test: AlphaScreen or HTRF; AlphaLISA kit AL356 HV/C/F (PerkinElmer), competition: biotin-conjugated PD-1 on streptavidin-coated donor beads, His-tagged PD-L1 on anti-His acceptor beads; 2 uL each of inhibitor dilution, PD-L1 (25 nM), PD-1 (25 nM) and the two beads in 10 uL; 25 °C, 90 min; IC50 from sigmoidal fit; details: both partners purified
T1 construct: PD-L1 (programmed cell death-ligand 1) of the AlphaLISA PD-1/PD-L1 kit; Held on anti-His-conjugated acceptor beads; also called His-tagged PD-L1; programmed cell death-ligand 1; source: bought: PerkinElmer AlphaLISA assay kit (AL356 HV/C/F)
T1 sequence (Q9NZQ7 19-238): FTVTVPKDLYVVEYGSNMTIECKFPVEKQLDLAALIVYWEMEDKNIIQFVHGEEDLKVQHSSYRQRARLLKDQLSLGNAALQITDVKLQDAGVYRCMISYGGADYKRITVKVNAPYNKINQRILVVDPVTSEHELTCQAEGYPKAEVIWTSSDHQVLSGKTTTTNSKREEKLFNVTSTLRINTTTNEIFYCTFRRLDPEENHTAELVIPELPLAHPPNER
Ends that are not written are not given here.
outcome-measure: log10 IC50 (log10 of the value in µM)

WRYNN (not fully specified; X (position 3) = biphenyl-conjugated bromotyrosine) [WRXNN] | 2.20
NYR (not fully specified; X (position 2) = biphenyl-conjugated bromotyrosine) [NXR] | 2.99
GYG (not fully specified; X (position 2) = biphenyl-conjugated bromotyrosine) [GXG] | 2.83
QYQ (not fully specified; X (position 2) = biphenyl-conjugated bromotyrosine) [QXQ] | 3.29
CYA (not fully specified; X (position 2) = biphenyl-conjugated bromotyrosine) [CXA] | 2.82
YRRRR (not fully specified; X (position 1) = biphenyl-conjugated bromotyrosine) [XRRRR] | 2.64
YCSE (not fully specified; X (position 1) = biphenyl-conjugated bromotyrosine) [XCSE] | 3.19
Tyr-Tyr-Cys (not fully specified (residue 2)) [YXC] | 2.67
YGGG (not fully specified; X (position 1) = biphenyl-conjugated bromotyrosine) [XGGG] | 3.83
YNL (not fully specified; X (position 1) = biphenyl-conjugated bromotyrosine) [XNL] | 2.93
RYN (not fully specified; X (position 2) = biphenyl-conjugated bromotyrosine) [RXN] | 2.61
YGGGGG (not fully specified; X (position 1) = biphenyl-conjugated bromotyrosine) [XGGGGG] | 2.93
WRYNQ (not fully specified; X (position 3) = biphenyl-conjugated bromotyrosine) [WRXNQ] | 2.21
